# target: D(1A) dopamine receptor (Homo sapiens)
# Sequence (P21728 whole entry): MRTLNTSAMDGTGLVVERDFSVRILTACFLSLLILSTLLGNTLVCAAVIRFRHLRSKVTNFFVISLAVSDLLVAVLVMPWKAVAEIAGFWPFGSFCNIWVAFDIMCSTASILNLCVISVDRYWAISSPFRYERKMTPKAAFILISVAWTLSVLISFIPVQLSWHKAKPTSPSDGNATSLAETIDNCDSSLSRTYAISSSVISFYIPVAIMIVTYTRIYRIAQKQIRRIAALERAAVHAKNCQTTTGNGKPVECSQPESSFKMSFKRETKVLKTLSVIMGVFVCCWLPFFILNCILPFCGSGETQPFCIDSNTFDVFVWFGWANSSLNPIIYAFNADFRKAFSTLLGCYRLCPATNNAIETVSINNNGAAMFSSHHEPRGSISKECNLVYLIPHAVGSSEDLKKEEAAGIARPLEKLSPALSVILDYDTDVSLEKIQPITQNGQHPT
# assay.summary: Displacement of [3H]SCH23390 from human dopamine D1 receptor at 10 uM
reported.metric: Activity (%)

Some solved entries appear below for comparison.
smiles.record | reported.metric | reading
COc1ccc(N2CCN(CCCCN3CCc4ccccc4C3=O)CC2)cc1 | Activity | 34.2
O=C1c2ccccc2CCN1CCCN1CCN(c2ncccn2)CC1 | Activity | 40.8
COc1ccc(N2CCN(CCCN3CCCc4ccccc4C3=O)CC2)cc1 | Activity | 42.8

1: COc1ccc(N2CCN(CCCCN3CCCc4ccccc4C3=O)CC2)cc1
2: O=C1c2ccccc2CCN1CCCCN1CCN(c2ncccn2)CC1
Prompt: For the two items 1 and 2 , which reports the higher Activity value? Your choice should be expressed through its label.
Completion: 1
(1: 47.5%, 2: 31.6%)

###

# target: D(2) dopamine receptor (Homo sapiens, UniProt P14416)
# Sequence (P14416 whole entry): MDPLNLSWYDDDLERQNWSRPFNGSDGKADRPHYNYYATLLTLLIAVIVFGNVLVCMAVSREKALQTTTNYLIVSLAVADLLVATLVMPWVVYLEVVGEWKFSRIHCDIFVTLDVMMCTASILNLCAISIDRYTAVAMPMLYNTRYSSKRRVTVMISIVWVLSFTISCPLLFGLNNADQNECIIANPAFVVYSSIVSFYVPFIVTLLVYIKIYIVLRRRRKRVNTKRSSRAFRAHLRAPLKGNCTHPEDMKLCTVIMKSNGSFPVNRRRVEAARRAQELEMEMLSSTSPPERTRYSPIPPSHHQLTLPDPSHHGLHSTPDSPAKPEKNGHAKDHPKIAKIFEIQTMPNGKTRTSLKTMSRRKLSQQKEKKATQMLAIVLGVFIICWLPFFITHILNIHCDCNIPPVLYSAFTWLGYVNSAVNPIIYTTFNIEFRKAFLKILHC
# assay.summary: Displacement of [3H]spiperone from human dopamine D2 receptor
reported.metric: Ki (nM)

Below, 3 compounds whose answers are already recorded.
smiles.record | target | reading
O=C1c2ccccc2CCCN1CCCCN1CCN(c2ncccn2)CC1 | D(2) dopamine receptor (Homo sapiens, UniProt P14416) | 151
O=C1c2ccccc2CCN1CCCCN1CCN(c2cccc(Cl)c2Cl)CC1 | D(2) dopamine receptor (Homo sapiens, UniProt P14416) | 11.5
O=C1c2ccccc2CCCN1CCCCN1CCN(c2ccccn2)CC1 | D(2) dopamine receptor (Homo sapiens, UniProt P14416) | 229

a: COc1ccccc1N1CCN(CCCCN2CCc3ccccc3C2=O)CC1
b: O=C1c2ccccc2CCCN1CCCN1CCN(c2cccc(Cl)c2Cl)CC1
Prompt: Which shows the larger Ki value: a or b ? State the label of the item chosen.
Completion: b

###

# target: UniProt P21728
# assay.summary: Displacement of [3H]SCH23390 from human dopamine D1 receptor
reported.metric: Ki (µM)

Here are 2 compounds together with their reported answers.
smiles.record | reading
O=C1c2ccccc2CCN1CCCCN1CCN(c2ccccn2)CC1 | 2.04
O=C1c2ccccc2CCCN1CCCCN1CCN(c2ccccn2)CC1 | 0.282

I: COc1cccc(N2CCN(CCCCN3CCc4ccccc4C3=O)CC2)c1
II: O=C1c2ccccc2CCCN1CCCN1CCN(c2cccc(Cl)c2Cl)CC1
Prompt: Which one would you say has the larger Ki value: I , or II ? Reply with the label of the item you choose.
Completion: II
(II: 2.4 µM, I: 0.427 µM)

###

# target: D(3) dopamine receptor (Homo sapiens, UniProt P35462)
# Sequence (P35462 whole entry): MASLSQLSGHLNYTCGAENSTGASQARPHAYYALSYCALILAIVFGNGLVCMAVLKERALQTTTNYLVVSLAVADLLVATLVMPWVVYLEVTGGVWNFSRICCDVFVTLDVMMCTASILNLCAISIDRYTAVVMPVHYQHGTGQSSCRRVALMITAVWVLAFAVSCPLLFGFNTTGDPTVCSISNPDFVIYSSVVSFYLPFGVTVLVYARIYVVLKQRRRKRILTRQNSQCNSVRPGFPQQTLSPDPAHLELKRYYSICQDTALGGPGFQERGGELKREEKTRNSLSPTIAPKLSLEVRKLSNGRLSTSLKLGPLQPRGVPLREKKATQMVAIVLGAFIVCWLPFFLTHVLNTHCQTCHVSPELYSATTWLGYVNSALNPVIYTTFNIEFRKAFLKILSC
# assay.summary: Displacement of [3H]spiperone from human dopamine D3 receptor
# condition.description: read-out: pKi (converted)
reported.metric: Ki (nM)

smiles.record | Ki (nM)
COc1ccccc1N1CCN(CCCCN2CCCc3ccccc3C2=O)CC1 | 1.58

1: O=C1c2ccccc2CCN1CCCCN1CCN(c2ncccn2)CC1
2: COc1ccccc1N1CCN(CCCCCN2CCc3ccccc3C2=O)CC1
Prompt: I would appreciate it if you could say which entry, 1 or 2 , has the lower Ki value. Mark your answer with the label of the selected entry.
Completion: 2
(2: 32.4 nM, 1: 1510 nM)

A: COc1cccc(N2CCN(CCCCN3CCc4ccccc4C3=O)CC2)c1
B: COc1ccc(N2CCN(CCCN3CCCCc4ccccc4C3=O)CC2)cc1
Prompt: Form field 'greater Ki' accepts A or B ; which applies? Kindly state the label of the option you pick.
Completion: B
(B: 8910 nM, A: 40.7 nM)

P: COc1ccc(N2CCN(CCCCN3CCc4ccccc4C3=O)CC2)cc1
Q: O=C1c2ccccc2CCN1CCCCN1CCN(c2cccc(Cl)c2Cl)CC1
Prompt: // which entry has the larger Ki value, P or Q ? State your choice using its label.
Completion: P
(P: 490 nM, Q: 162 nM)

I: O=C1c2ccccc2CCN1CCCN1CCN(c2ncccn2)CC1
II: O=C1c2ccccc2CCCN1CCCN1CCN(c2ccccn2)CC1
III: O=C1c2ccccc2CCCN1CCCN1CCN(c2cccc(C(F)(F)F)c2)CC1
IV: O=C1c2ccccc2CCCN1CCCCN1CCN(c2ncccn2)CC1
Prompt: Ascending sort, Ki. Present the labels in the sequence the task asks for.
Completion: IV, III, II, I
